Attribution: patent US7767659B2

Test system: SK-MEL-28
Assay: Inhibition of cells growth by colorimetric assay (SRB)
Details: Homo sapiens, SK-MEL-28, 48 h, read-out: MEL-28 GI50
Values of GI50 strictly less than 6 nM map to true, and values of at least 6 nM map to false.

A selection of reference data follows.
COC1=C(C)C(=O)C2=C(C1=O)[C@@H]1C3[C@@H]4SC[C@]5(NCCc6c5[nH]c5ccccc65)C(=O)OC[C@@H](c5c6c(c(C)c(OC(C)=O)c54)OCO6)N3[C@@H](O)[C@H](C2)N1C (stereo partly shown) ... false
COc1cc2c(cc1O)CCN[C@]21CS[C@@H]2c3c(O)c(C)c4c(c3[C@H](COC1=O)N1C2[C@@H]2N[C@@H](Cc3cc(C)c(OC)c(O)c32)[C@@H]1O)OCO4 (stereo partly shown) ... true
C=CCN1[C@@H]2c3c(cc(C)c(OC)c3O)C[C@H]1[C@H](C#N)N1C2[C@@H]2SC[C@]3(NCCc4cc(OC(=O)OC(C)(C)C)c(OC)cc43)C(=O)OC[C@H]1c1c3c(c(C)c(O)c12)OCO3 (stereo partly shown) ... false

Request: Criterion: GI50 strictly below 6 nM. Is it met by COc1cc2c(cc1O)CCN[C@]21CS[C@@H]2c3c(OC(C)=O)c(C)c4c(c3[C@H](COC1=O)N1C[C@@H]3Cc5cc(C)c(OC)c(O)c5C(C21)N3C)OCO4 (stereo partly shown) ?
Response: false

Request: Further, for COc1ccc2[nH]c3c(c2c1)CCN[C@]31CS[C@@H]2c3c(OC(C)=O)c(C)c4c(c3[C@H](COC1=O)N1C2[C@@H]2N[C@@H](Cc3cc(C)c(OC)c(O)c32)[C@@H]1C#N)OCO4 (stereo partly shown) ?
Response: true

Request: Moving on to the next compound: COc1c(C)cc2c(c1O)[C@H]1N[C@@H](C2)[C@H](C#N)N2C1[C@@H]1SCC(=O)C(=O)OC[C@H]2c2c3c(c(C)c(OC(C)=O)c21)OCO3 (stereo partly shown)
Response: false

Request: Moving on to the next compound: C=CCN1[C@@H]2c3c(cc(C)c(OC)c3O)C[C@H]1[C@H](C#N)N1C2[C@@H]2SC[C@]3(NCCc4c3[nH]c3ccccc43)C(=O)OC[C@H]1c1c3c(c(C)c(OC(C)=O)c12)OCO3 (stereo partly shown)
Response: false

Request: Next record, please: CCCCCCCC(=O)Oc1c(C)c2c(c3c1[C@H]1SC[C@]4(NCCc5cc(O)c(OC)cc54)C(=O)OC[C@@H]3N3C1[C@@H]1N[C@@H](Cc4cc(C)c(OC)c(O)c41)[C@@H]3O)OCO2 (stereo partly shown)
Response: false

====

compounds and their reported CC50
System: IGROV-ET
Test: Inhibition of cells growth by colorimetric assay (SRB)
Conditions: read-out: LC50 IGROV-ET; IGROV-ET; SRB, 48 hours exposure
Answer in nM, number only, no unit symbol.

C=CCN1C2Cc3cc(C)c(OC)c(O)c3C1C1C3SCC(NC(C)=O)C(=O)OCC(c4c5c(c(C)c(OC(C)=O)c43)OCO5)N1C2C#N (centres unmarked) [compound 24] ... 130

Now consider a different compound.
Request: Which CC50 is reported with IGROV-ET for this entry: C=CCN1C2Cc3cc(C)c(OC)c(O)c3C1C1C3SCC(NC(=O)CC)C(=O)OCC(c4c5c(c(C)c(OC(C)=O)c43)OCO5)N1C2C#N (centres unmarked) [compound 27] ?
Response: 915
